- ASSAY_COMMENT: yeast display, Sf9 membrane polyspecificity reagent, FACS + sequencing; frameworks hold sequencing errors
MEASURED_PARAMETER: polyreactivity (PSR sort gate)

QVQLVESGGGLVQAGGSLRLSCAASGFIFVFYAMGWYIQAPGKERELVAAITWSGGGTYYADSVKGRFTISRDNAKNTVYLQMNSLKPEDTAVYYCNTDASPYLFDYWGQGTQVTVSS
low polyreactivity
QVQLVESGGGLVQAGGSLRLSCAASGRIFGYYAMGWYRQAPGKERELVARITKTVGGTYYADSVKGRFTISRDNAKNTVYLQMNSLKPEDTAVYYCAARVWTGNGRSKGAYDYWGQGTQVTVSS
high polyreactivity
QVQLVESGGGLVQAGVSLRLSSAASGIIFAYYTMGWYRQAPGKERELVAAISWSGGSTYYADSVKGRFTISRDNAKNTVYLQMNSLKPEDTAVYYCAVVSRRTRLPYYYWGQGTQVTVSS
high polyreactivity
QVQLVESGGGLVQAGVSLRLSCAASGNTFGLYAMGWYRQAPGKEREFVADITTDGGTTYYADSVKGRFTISRDNAKNTVYLQMNSLKPEDTAVYYCAKLGTFGQHQYDYWGQGTQVTVSS
low polyreactivity

In: State the recorded polyreactivity (PSR sort gate) for this entry: "QVQLVESGGGLVQAGGSLRLSCAASGFNFGNYAMGWYRQAPGKERELVAVISRGGSTYYADSVKGRFTISRDYAKNSVYLQMNSLKPEDTAVYFCAARAFPPYGYDYWGQGTQVTVSS"
Out: high polyreactivity

In: Again, but for "QVQLVESGGGLVQAGGSRRLSCAASGRTIGVYAMGWYRQAPGKERELVAAFSWSGGTTYYADSVKGRFTISCDNAMNTVYLQLNSLKPEDNAVYYCAADSFTEVDYWGQGTQVTVSS"
Out: low polyreactivity

In: Again, but for "QVQLVESGGGLVQAGGSLRLSCAASGGIFGYYAMGWYRQAPGKEREFVAAISVSGGSTYYADSVKGRFTISRDNAKNTVYLQMNSLKPEDTAVYYCAADVIVLRPGEYDYWGQGTQVTVSS"
Out: low polyreactivity

In: Again, but for "QVQLVESGGGLVQEGGSLRLSCAASGSTSQYNDMGWYRQAPGKERELVAAITNCGSTNYADSVKGRFTISRDNAKNTVYLQMNSLKPEDTAVYSCNADYGQERPGYGYGYWGQGTQVTVSS"
Out: low polyreactivity

In: Again, but for "KVQLVESGGGLVHAGGSLRLSCAASGRIIYYYAMGWYRTAPGKERELVAAISGRGTSTYYADSVKGRFTISRDNAKNTVYLKMNSLKPEDTAVYYCAARYYYWGQGTQVTVSS"
Out: high polyreactivity

In: Again, but for "QFQLVESGGGLVQAGGSLRLSCAASGSIFYTYTMGWYRQAPGKDRVLVAAISFSDGDTYYADSVKGRFTISRDNAKNTVYLQMNSLKPEDTAVYYSNAYVYLPNYPYDYWGQGTQVTVSS"
Out: low polyreactivity

In: Again, but for "QVQLVESGGGLVQAGGSLRLSCAATGRISFRILWDGIDRRLGKKGSWLPLLTNTGSTNYADSVKARFTISRDNAKNTVYLQMNSLKPEDTAVYYCNADPTGGSSYPAYFEYDYWGQGTQGTVSS"
Out: low polyreactivity

---

- ASSAY_COMMENT: yeast display, Sf9 membrane polyspecificity reagent, FACS + sequencing; frameworks hold sequencing errors
MEASURED_PARAMETER: polyreactivity (PSR sort gate)

Completed entries (count: 4):
QVQLVESGGGLVQAGGSLRLSCAASGSNFGKYAMGWYRPAPGKERELVATITRRGGSTYYADSVKGRFTISRDNAKNTVYLQMNSLKPEDSAVYYCAKRSNGYVDYGYWGQGTQVTVSS
high polyreactivity
QVQLVESGGGLVQAGGSLSLSCAASGRIFRYNAMGWYRQAPGKERELVATISRGGGSTYYADSVKGRFTISRDNAKNTVYLQMNSLKPEYTAVYYCAAVTYSRISGGYDYWGQGTQVTVSS
high polyreactivity
QVQLVESGGGLVQAGGSLRLSCAASGLTFEWYTMGWYRQAPGKERALVAVITVSGSSTYYADSVKGRFSISRDNAKNTVYFQMNSLKPEDTAVYYCNADWSFYSYTLYDYWGQGTQVTVSS
low polyreactivity
QVQLVESGGGLVQAGGSLRLSCAASGFTFDSYDMGGYRQAPGKERVLVAAITWSGGSTYYADSVKGRFTISRDYAKNTVYLQMNSLKPEDTAVYYGNADTGTYWVPWYHDGYDYWGQGTQVTVSS
low polyreactivity

// switching to the query sequence
In: State the recorded polyreactivity (PSR sort gate) for this entry: "QVQLVESGGCLVQAGGSLRLSCAASGYTFSLNAMGWYRQAPGKERELVAAISYSGGSTYYADSVKGRFTISRDNAKNTVYLQMNSLKPEDTAVYYCAVRRPQYSYYWDFDYWGQGTQLTVSS"
Out: high polyreactivity

---

- ASSAY_COMMENT: yeast display, Sf9 membrane polyspecificity reagent, FACS + sequencing; frameworks hold sequencing errors
MEASURED_PARAMETER: polyreactivity (PSR sort gate)

QVQLVESGGGLVQAGGSLRLSCDASGRIFGMYAMGWYRQSPGKEREFVAAISWRTGSTYYADSVKGRFTISRDNAKNTVYLQMNSLKPEDTAVYYCAAESAAKYGYWRQGTQVTVSS
high polyreactivity
QVQLVESGGGLVQAGGSLRLSCAASGLTFYSYAMGWYRQAPGKERELVAAISKSGGSTYYADSVKGRFTISRDNAKNTVYLQMNSLKPEDTAVYYCNALTKTGTPPDYDYWGQGTQVTVSS
high polyreactivity
QVQLVESGGGLVQAGGSLRLSCAASGRILTSNAMGWYRQAPGKERELVAAISWSGGSTYYADSVKGRFTISRDNAKNTVYLQMNSLKPEDTAVYYCNADDTPVPSIRFDYWGQGTQVTVSS
low polyreactivity
QVQLVEPGGGLVQAGGSLRLSCAASGRTFYRYAMGWYRQAPGKERELVAAITWSGGRTYYADSVKGRFTMSRDYAKNTVYLQMNSLKPEDTAVYYCAADNSYRGYHSPYDYWGQGTQVTVSS
low polyreactivity

In: State the recorded polyreactivity (PSR sort gate) for this entry: "QVQLVESGGGLVQAGGSLRLSCAASGSTFAFYAMGWYRQAPGKERELVAAISSSGARTYYADSVKGRFTISRYNAKNTVYLQMNSLKPEDTAVYYCAAAFYRLYITSYYYWGQGTQVTVSS"
Out: high polyreactivity

---

- ASSAY_COMMENT: yeast display, Sf9 membrane polyspecificity reagent, FACS + sequencing; frameworks hold sequencing errors
MEASURED_PARAMETER: polyreactivity (PSR sort gate)

Completed entries (count: 4):
QVQLVESGGGLVQAGGSLRLSCAASGSIFADNGMGWYRQAPGKERELVAAINSGSTYADSVKGRFTISRDNAKNTVYLQMNSLKPEDTAVYYCNADGVTSGRVDYWGQGTQVTVSS
low polyreactivity
QVQLVESGGGLVQAGGSLRLSCAASGPMFTSNAMGWYRQAPGKERELVAAISRRGTRTYYADSVKGRFTISRDNAKNTVYLQMNSLKPEDTAVYYCAATTGEQEDYWGQGTQVTVSS
high polyreactivity
QVQLVESGGGLVQAGGSLRLSCAASGRIFSKNAMGWYRKAPGKERELVAAISWSGGSTYYADSVKGRFTISRDNAKNTVYLQMNSLKPEDTAVYYCAADSPRYGGYGYWGQGTQVTVSS
low polyreactivity
QVQLVESGGGLVQAGGSLRLSCAASGGTFRVYAMGWYRQAPGKERELFAAISSGGSTNYADSVKGRFTISRDNAKNTVYLQMNSLKPEDTAVYYCNAKYRYRFARSPIYYYWGQGTQVTVSS
high polyreactivity

In: State the recorded polyreactivity (PSR sort gate) for this entry: "QVQIVESGGGLVQAGGSLRLRCADSGRIFVRYAMGGYIQSPGKDRELVAGITSGSRTNYADSVKGRFTISRDNAKNTVYLQMNSLKPEDTAVYYCAKRYLRYSRLGNYWGQGTQVTVSS"
Out: high polyreactivity

---

- ASSAY_COMMENT: yeast display, Sf9 membrane polyspecificity reagent, FACS + sequencing; frameworks hold sequencing errors
MEASURED_PARAMETER: polyreactivity (PSR sort gate)

Completed entries (count: 5):
QVQLVESGGGLVQAGGSLRLSCAASGFTFGANVMGWYRQAPGKERQLVAGITWSGDSTYYADSVKGRFTISRDNAKNTVYLQMNSLKPEDTAVYYCAADVYDGEYILDYDYWGQGTQVTVSS
low polyreactivity
QVQLVESGGGLVQAGGSLRLSCAASGSTFSANAMGWYRQAPGKERELVASISRRGGSTYYADSVKGRFTISRDYAKNTVYLQMNSLKPEDTAVYYCNKRIARQGSPSEYGRSQIGYYYWGQGTQVTVSS
high polyreactivity
QVQLVESGGGLVQAGGSLRLSCAASGSTFAVIVMGWYRQAPGKERELVATITYRDGRTYYADSVKGRFTISRDNAKNTVYLQMNSLKPEDTAVYYCAADDEYKQEAEMDSWGQGTQVTVSS
low polyreactivity
QVQLVDSGGGLVQAGGSLRLSCAASGFIIGYNAMGWYRQAPGKEREFVAAISYNGGSTRYADSVKGRFTISRDNAKNTVYLQMNSLKPEDTAVYYCAAQKARVYRGAWTRYEYWGQGTQVTVSS
high polyreactivity
QVHHVESGGGLVQAGGNLRLSCQASGSTFDENDMGWYRQPQGKERELVAVISICTSTNYADSVKGRFTISRDNAKNTVYLQMNSLKPEDTAVYYFDAFVPGSYLDAIVGNAFNYWGQGTQVTVSS
low polyreactivity

In: State the recorded polyreactivity (PSR sort gate) for this entry: "QDHLVESGGGLVQAGGSLRLSCAASGISFSVNAMGWSRQAPGKERELVASISSGGSTNYADSVTGRFTISRDNAKNTVYLQMNSLNPEDTAVSYCAAGYWNDFDWGQGTQVTVSS"
Out: low polyreactivity

In: Again, but for "QVQLVESGGGLVQAGGSLRLSCAASGIIFINYAMGWYRQAPGKERELVAAINSGGSTKYADSEKGRFTISRDNAKNTVYLLMNSLKPEDTAVYDCAAVPAGRYYWWLYYYWGQGTQVTVSS"
Out: high polyreactivity

In: Again, but for "QVQLVESGGGLVQAGGSLRLSCAASGSIFYLYAMGWYRQAPGKERELVAGITWSGGRTYYADSVKGRFTISRDNAKNTVYLQMNSLKPEDTAVYYCAAYASRYRYGYWGQGTQVTVSS"
Out: high polyreactivity

In: Again, but for "QVQLVESGGGLVQAGGSLRLICAASGSIFWAYAMGWYRQAPGKERELVAAISSSGGRTYYADSVKGRFTISRDNAKNTVYFQMNSLNPEDTAVYYCAARSYSGYSPTFDYWGQGTQVTVSS"
Out: high polyreactivity

In: Again, but for "QVQLVESGGGLVQAGGSLRLSCAASGSIFYHYAMGWYRQAPGKERELVAAISQSGGGTYYADSVKGRFTISRDNAKNTVYLQMNSLKPEDTAVYYCIRLSKQKQEFDYWGQGTQVTVSW"
Out: high polyreactivity

In: Again, but for "QVQLVESGGGLVQAGGSLRLSCAASGSTFVVNAMAWYRQAPGKERELVAVISYSGDSTYYADSVKGRFTISRDNAKNTVYLQMNSLKPEDSAVYYCNADYYDESNWGQGTQVTVSS"
Out: low polyreactivity

Every entry's value here was drawn from the nanobody polyreactivity screen of Harvey et al. (2022).
